All figures here come from the Human Domainome abundance scans (Beltran et al. 2025).

Each entry below lists one item and its recorded abundance fitness value.
B1: Gamma-crystallin C, residues 91 to 170; numbered along this chain, P07315 (parent)
chain: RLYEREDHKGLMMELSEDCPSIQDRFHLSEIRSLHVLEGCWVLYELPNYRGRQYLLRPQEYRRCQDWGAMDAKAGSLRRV

variants of: B1; assay: abundance fitness (aPCA) (normalised: wild type 0, dead -1); higher = more abundant; growth selection in yeast, the domain comes from the species named; settings: Homo sapiens

// known answers, use as guide
P47V	-0.591
L37C	-0.578
S33R	-0.9

Any idea what abundance fitness was measured for C64G ?
-0.597

So what's the measured abundance fitness for this one? R52S
-0.234

What value of abundance fitness has been reported for the following variant? R32D
-0.89

Please report the recorded abundance fitness for K73R .
0.017

Which abundance fitness value is on record for C64H ?
0.063

So what's the measured abundance fitness for this one? H35L
-0.15

State the recorded abundance fitness for this entry: Y3F
-0.238

Given the entry C40E , report its measured abundance fitness.
0.052

Can you share its abundance fitness? I mean this variant: E60Q
0.034

Tell me the measured abundance fitness of W67H , please.
-0.89

So what's the measured abundance fitness for this one? I31N
-0.912

What abundance fitness value was documented for this variant, G51P ?
-1.03

Name the reported abundance fitness value associated with the variant R62S
-0.069

Which abundance fitness value is on record for F26M ?
-0.049

What value of abundance fitness has been recorded for this entry: V36G
-0.76

So what's the measured abundance fitness for this one? Q23W
0.003

Consider the variant L46K and give its measured abundance fitness.
-0.051
